Where do these numbers come from? They come from patent US20240376170A1.

Target: T1, IL-2 receptor βγ complex (human, UniProt P14784 27-551; P31785 23-369)
T1 sequence (looked up) 1: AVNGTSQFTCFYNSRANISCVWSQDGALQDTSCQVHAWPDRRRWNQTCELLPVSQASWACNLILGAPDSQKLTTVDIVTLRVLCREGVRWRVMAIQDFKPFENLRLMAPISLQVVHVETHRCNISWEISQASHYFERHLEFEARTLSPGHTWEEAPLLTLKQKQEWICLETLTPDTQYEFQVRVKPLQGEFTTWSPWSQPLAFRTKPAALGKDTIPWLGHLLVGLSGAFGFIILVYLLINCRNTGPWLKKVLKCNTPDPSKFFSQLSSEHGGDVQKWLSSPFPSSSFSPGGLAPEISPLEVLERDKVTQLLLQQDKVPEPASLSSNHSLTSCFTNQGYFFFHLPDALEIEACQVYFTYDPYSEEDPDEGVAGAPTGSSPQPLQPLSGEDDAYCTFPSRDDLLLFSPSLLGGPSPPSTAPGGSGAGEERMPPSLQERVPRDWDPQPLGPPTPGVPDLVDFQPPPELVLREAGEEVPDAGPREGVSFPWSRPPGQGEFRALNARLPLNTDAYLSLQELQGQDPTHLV
T1 sequence (looked up) 2: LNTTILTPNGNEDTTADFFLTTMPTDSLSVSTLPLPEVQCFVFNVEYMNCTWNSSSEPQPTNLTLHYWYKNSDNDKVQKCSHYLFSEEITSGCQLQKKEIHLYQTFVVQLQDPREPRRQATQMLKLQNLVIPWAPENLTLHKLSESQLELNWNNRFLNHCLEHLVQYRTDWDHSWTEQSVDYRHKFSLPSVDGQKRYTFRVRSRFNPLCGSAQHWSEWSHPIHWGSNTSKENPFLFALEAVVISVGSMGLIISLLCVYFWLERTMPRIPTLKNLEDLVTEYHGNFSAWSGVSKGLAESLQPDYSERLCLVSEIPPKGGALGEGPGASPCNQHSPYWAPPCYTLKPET
Assay: cell-based or functional assay
Bridges are numbered along the chain shown (N, C = ends). Primed or numbered codes have the meaning given here. [ ]: non-standard residue; d: D form. 8x polyethylene glycol‑amino = O-(8x polyethylene glycol-amino)-tyrosine, SITE 45; 9x polyethylene glycol‑azido = O-(9x polyethylene glycol-azido)-tyrosine, SITE 42; Ygp(4) = Tyr with amino-capped PEG8 (O-(8x polyethylene glycol-amino)-tyrosine); Yn3(4) = Tyr with azide-capped PEG9 (O-(9x polyethylene glycol-azido)-tyrosine); Ygp = O-(8x polyethylene glycol-amino)-tyrosine (Tyr, amino-capped PEG8); Yn3 = O-(9x polyethylene glycol-azido)-tyrosine (Tyr, azide-capped PEG9); Ygp″ = O-(8x polyethylene glycol-amino)-tyrosine; Yn3″ = O-(9x polyethylene glycol-azido)-tyrosine; hSer = N[C@@H](CCO)C(=O)O; Nle = CCCC[C@H](N)C(=O)O
Entry flag: YES if Average EC50, pSTAT5 Assay in NK cells reaches 9 nM; NO if it does not.

Field: example entries. Status: answers known.
1. CMP-330 (ligand, bridge 9-23; not fully specified (bridges)) APTSSSTKKTQLQLEHLLLDLQEILNGINNYKNPKLTR[Nle]L[hSer]Y(9x polyethylene glycol‑azido)KFY(8x polyethylene glycol‑amino)[Nle]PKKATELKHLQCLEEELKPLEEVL[hSer]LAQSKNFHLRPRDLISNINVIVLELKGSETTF[hSer]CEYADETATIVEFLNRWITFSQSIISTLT
YES
2. CMP-313, Matriptase cleaved molecule (ligand, also: m81 after matriptase cleavage: Lys23 side-chain branch (cleavable peptide) cut, remnant not given here) APTSSSTKKTQLQLEHLLLDLQKILNGINNYKNPKLTR[Nle]L[hSer][Yn3]KF[Ygp][Nle]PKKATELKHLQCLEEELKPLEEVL[hSer]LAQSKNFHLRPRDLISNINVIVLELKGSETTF[hSer]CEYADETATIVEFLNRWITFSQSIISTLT
NO
3. CMP-330, Matriptase cleaved molecule (ligand, not fully specified; also: K9 and E23 side chains attached to another sequence, matriptase-cleaved product, remnants not given here) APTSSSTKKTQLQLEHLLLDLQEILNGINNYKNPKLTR[Nle]L[hSer]Y(9x polyethylene glycol‑azido)KFY(8x polyethylene glycol‑amino)[Nle]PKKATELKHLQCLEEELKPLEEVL[hSer]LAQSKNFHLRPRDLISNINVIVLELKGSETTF[hSer]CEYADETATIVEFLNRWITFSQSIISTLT
YES
4. CMP-324 (ligand, not fully specified (residue 26); ends and bridges not checked; also: Glu26 side chain attached to another sequence (short peptide)) LVGAPTSSSTKKTQLQLEHLLLDLQEILNGINNYKNPKLTR[Nle]L[hSer][Yn3″]KF[Ygp″][Nle]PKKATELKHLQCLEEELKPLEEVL[hSer]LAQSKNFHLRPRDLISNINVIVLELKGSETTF[hSer]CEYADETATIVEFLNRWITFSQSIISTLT
NO

Please indicate if the recorded Average EC50, pSTAT5 Assay in NK cells for CMP-136, MMP2 cleaved molecule (ligand, ends and bridges not checked; also: cleaved by MMP2, cleavage product not defined, N-terminal PEG9 link and Glu29 side-chain attachment of the cleavable peptide not defined) APTSSSTKKTQLQLEHLLLDLQ[Nle]ILNGIENYKNPKLTR[Nle]L[hSer][Yn3]KF[Ygp][Nle]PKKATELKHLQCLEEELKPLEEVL[hSer]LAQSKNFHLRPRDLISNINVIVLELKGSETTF[hSer]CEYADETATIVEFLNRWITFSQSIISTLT meets or exceeds 9 nM.
NO

Next record, please: CMP-168, MMP2 cleaved molecule (ligand, not fully specified; ends and bridges not checked; also: MMP2 cleaved, cleavage site and linker fragments on Lys9 and Glu23 side chains not given here) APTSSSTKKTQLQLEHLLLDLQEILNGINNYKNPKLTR[Nle]L[hSer][Yn3(4)]KF[Ygp(4)][Nle]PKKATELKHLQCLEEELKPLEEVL[hSer]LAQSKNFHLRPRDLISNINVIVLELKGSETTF[hSer]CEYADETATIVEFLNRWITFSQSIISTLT
NO

Please give the result for CMP-329, Matriptase cleaved molecule (ligand, ends and bridges not checked; also: after matriptase cleavage, remnants of the Lys9–Glu23 peptide linker not given here) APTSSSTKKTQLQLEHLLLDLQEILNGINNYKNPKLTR[Nle]L[hSer][Yn3″]KF[Ygp″][Nle]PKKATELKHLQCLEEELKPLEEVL[hSer]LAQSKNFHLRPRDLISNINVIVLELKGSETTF[hSer]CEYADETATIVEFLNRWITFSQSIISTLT too.
YES
